System: HEK293
assay.overview: Cytotoxic Profiling of Annotated Libraries Using Quantitative High-Throughput Screening (AID 1296008); note: % is set by controls: 0 for no effect and ±100 for the full control effect; nearly all actives have a fitted effect of over 60% in size
measurement.context: Five cell lines viability, CellTiter-Glo ATP luminescence, 48-72 h; stronger effect = lower value
Records with an inconclusive call do not appear. Activity calls are given as the source filed them. Calls come from the whole dose curve; as a rule, active = well fitted inhibition curve with a large enough effect; inconclusive = small, poorly fitted or top-dose-only effect; inactive = flat fitted curve, though single readings scatter.
# key: entry, value: max response

Solved entries:
>  <molecule>
COc1ccc(/C=C/C(=O)O[C@@H]2[C@@H](O)[C@@H](O)[C@H](O[C@H]3[C@@H]4C=CO[C@@H](O[C@@H]5O[C@H](CO)[C@@H](O)[C@H](O)[C@H]5O)[C@@H]4[C@@]4(CO)O[C@@H]34)O[C@H]2C)cc1

>  <max response>
-4.15% (inactive)

$$$$
>  <molecule>
CC(=O)OCC1=CCC2C(C)(C)CCCC2(C)C12CCC(C)(CC(=O)O)O2 (centres undefined)

>  <max response>
-0.588% (inactive)

$$$$

Qu. // lookup max response for COc1c(C)c(OCC(O)C(C)(C)O)cc2c1CNC2=O (centres undefined)
Ans. -3.96% (inactive)

Qu. Same lookup for CC1(C)C=Cc2c(ccc3c2[N+]([O-])=C2C3(O)CC34NC(=O)C5(CCCN5C3=O)CC4C2(C)C)O1 (centres undefined) , please.
Ans. -1.32% (inactive)

Qu. Param item: COc1cccc(OC)c1-c1nc(C(=O)N[C@@H](CC(C)C)C(=O)O)cn1-c1ccnc2cc(Cl)ccc12
Ans. -12.4% (inactive)

Qu. Please give the result for CC1(C)C(=O)CCC2(C)C1C(O)C=C1COC(=O)C12O (centres undefined) too.
Ans. -3.58% (inactive)

Qu. Now consider C/C=C(\C)C(=O)OC[C@H]1O[C@@H](O[C@H]2[C@@H](O[C@H]3O[C@H](COC(=O)/C(C)=C/C)[C@@H](O)[C@H](O)[C@H]3O[C@@H]3O[C@H](CO)[C@@H](O)[C@H](OC(=O)/C(C)=C/C)[C@H]3O)O[C@H](COC(=O)/C(C)=C/C)[C@@H](O)[C@@H]2O)[C@H](O)[C@@H](O)[C@@H]1O and answer again.
Ans. -5.26% (inactive)

Qu. Field entry: O=C(NCC(=O)N1CCCC1)Nc1ccc2ccccc2c1
Ans. 2.51% (inactive)

Qu. COc1cc(C(=O)OC[C@@]2(O)CO[C@@H](O[C@H]3[C@H](Oc4ccc(O)cc4)O[C@H](CO)[C@@H](O)[C@@H]3O)[C@@H]2O)cc(OC)c1O ?
Ans. -3.3% (inactive)
